system: PTH-induced bone resorption in mouse calvaria; assay: Inhibition of PTH-induced bone resorption in mouse calvaria in vitro; format: cell-based; settings: 72 h, 100 μmol/l, PTH 10 nM, cultured for three days, read-out: Inhibition of resorption 100 (PTH-x)/PTH
Structures can show the parent of a compound that is named as a salt.
Listed here are compounds together with their documented inhibition at 100 µM.
Just the number please, in %, no unit attached.

Before answering, review these 4 worked examples.
{"compound": "CC(=O)OP(=O)(O)C(Cl)(Cl)P(=O)(O)OC(C)=O [Compound 1, disodium salt]", "readout-unit": "%", "inhibition at 100 µM": 48.7}
{"compound": "CC(C)C(=O)OP(=O)(O)C(Cl)(Cl)P(=O)(O)OC(=O)C(C)C [Compound 2, disodium salt]", "readout-unit": "%", "inhibition at 100 µM": 64.8}
{"compound": "O=P([O-])([O-])C(Cl)(Cl)P(=O)(O)O.[Na+].[Na+] [Clodronate, disodium salt, reference compound]", "readout-unit": "%", "inhibition at 100 µM": 43.2}
{"compound": "CCCCCCCCCCCCCC(=O)OP(=O)(O)C(Cl)(Cl)P(=O)(O)OC(=O)CCCCCCCCCCCCC [Compound 3, disodium salt]", "readout-unit": "%", "inhibition at 100 µM": 50.5}

Please turn your attention to the following entry.
Field inhibition at 100 µM (system: PTH-induced bone resorption in mouse calvaria) for entry CCCCCCCCCCCCCCCCCC(=O)OP(=O)(O)C(Cl)(Cl)P(=O)(O)OC(=O)CCCCCCCCCCCCCCCCC [Compound 4, disodium salt] = 53.9

----------
assay: Chemical hydrolysis of prodrug molecules in phosphate buffer at 37° C.; assay type: physicochemical; settings: 50 mm phosphate buffer; phosphate buffer 50 mM, μ=0.15, pH 7.4, 37° C.; read-out: T1/2 pH 7.4 (converted)
Counter-ions that a name gives are not always drawn.
Listed here are molecules together with their documented half-life.
Just the number please, in days, no unit attached.

{"molecule": "O=C(OP(=O)(O)C(Cl)(Cl)P(=O)(O)OC(=O)c1ccccc1)c1ccccc1 [Benzoe acid dianhydride (Ex. 7), disodium salt]", "half-life, days": 9.79}

Please turn your attention to the following entry.
According to the records, this molecule CC(C)(C)C(=O)OP(=O)(O)C(Cl)(Cl)P(=O)(O)OC(=O)C(C)(C)C [Pivalyl acid dianhydride (Ex. 7), disodium salt] displays half-life of 32.9

----------
Listed here are molecules together with their documented metabolised at 1 min.
assay: Enzymatic hydrolysis of prodrug molecules in 80% plasma at pH 7.40 and 37° C.; format: in vitro ADME; conditions: pH 7.4, 37° C., 1 minute, mean ± SE, n = 3, read-out: clodronate released in the first sample (1 minute)
Counter-ions that a name gives are not always drawn.
Just the number please, in %, no unit attached.

Before answering, review these 2 worked examples.
{"molecule": "CCCC(=O)OP(=O)(O)C(Cl)(Cl)P(=O)(O)OC(=O)CCC [Butanoic acid dianhydride (Ex. 7), disodium salt]", "readout-unit": "%", "metabolised at 1 min": 98}
{"molecule": "CC(=O)OP(=O)(O)C(Cl)(Cl)P(=O)(O)OC(C)=O [Compound 1, disodium salt]", "readout-unit": "%", "metabolised at 1 min": 102}

Please turn your attention to the following entry.
According to the records, this molecule O=C(OP(=O)(O)C(Cl)(Cl)P(=O)(O)OC(=O)c1ccccc1)c1ccccc1 [Benzoe acid dianhydride (Ex. 7), disodium salt] displays metabolised at 1 min of 91.4

This collection of values is drawn from patent US6326363A.
